# assay_target: T1, hCDH6aa54-615 APPavi (human, UniProt P55285 54-615)
# T1 sequence: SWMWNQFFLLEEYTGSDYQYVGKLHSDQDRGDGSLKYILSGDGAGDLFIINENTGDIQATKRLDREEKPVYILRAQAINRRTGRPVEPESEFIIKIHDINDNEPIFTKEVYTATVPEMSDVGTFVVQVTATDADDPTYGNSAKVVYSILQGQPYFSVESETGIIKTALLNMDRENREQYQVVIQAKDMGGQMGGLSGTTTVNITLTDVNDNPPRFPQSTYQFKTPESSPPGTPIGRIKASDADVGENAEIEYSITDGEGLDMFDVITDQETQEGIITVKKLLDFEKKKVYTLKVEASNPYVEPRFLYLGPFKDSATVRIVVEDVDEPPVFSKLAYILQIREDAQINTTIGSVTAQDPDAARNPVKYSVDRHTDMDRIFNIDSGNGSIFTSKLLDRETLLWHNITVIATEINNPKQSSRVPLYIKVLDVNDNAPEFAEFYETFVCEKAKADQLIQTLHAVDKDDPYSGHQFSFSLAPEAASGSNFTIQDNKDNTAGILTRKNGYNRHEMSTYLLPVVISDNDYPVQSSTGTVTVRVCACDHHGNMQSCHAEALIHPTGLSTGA
# experiment: SPR binning
measured_endpoint: response of secondary antibody on primary antibody-CDH6 complex
Just the number, please.

Take a look at these entries with their results.
Exercise: Read the entry NOV0712 (antibody, human IgG1, kappa, V domains shown) VH: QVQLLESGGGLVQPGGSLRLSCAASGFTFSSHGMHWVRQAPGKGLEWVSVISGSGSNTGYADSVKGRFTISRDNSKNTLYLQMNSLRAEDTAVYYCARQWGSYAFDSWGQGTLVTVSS VL: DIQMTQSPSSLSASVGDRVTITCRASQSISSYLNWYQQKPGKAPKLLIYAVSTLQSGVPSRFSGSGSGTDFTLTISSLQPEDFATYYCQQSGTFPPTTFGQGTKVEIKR and write its reported response of secondary antibody on primary antibody-CDH6 complex.
Solution: -1.82

Exercise: Annotate the binder NOV0719 (antibody, human IgG1, kappa, V domains shown) VH: QVQLLESGGGLVQPGGSLRLSCAASGFTFSSHWVHWVRQAPGKGLEWVSVISYMGSSTYYADSVKGRFTISRDNSKNTLYLQMNSLRAEDTAVYYCARGSYDMAFDVWGQGTLVTVSS VL: DIQMTQSPSSLSASVGDRVTITCRASQSIVSYLNWYQQKPGKAPKLLIYDASSLQSGVPSRFSGSGSGTDFTLTISSLQPEDFATYYCQQSGSHSITFGQGTKVEIKR with its measured response of secondary antibody on primary antibody-CDH6 complex.
Solution: 11.1

Exercise: Query response of secondary antibody on primary antibody-CDH6 complex for NOV1132 (antibody, human IgG1, lambda, V domains shown) VH: QVQLQQSGPGLVKPSQTLSLTCAISGDSVSSQSAGWNWIRQSPSRGLEWLGRIYYRSKWYNDYAVSVKSRITINPDTSKNQFSLQLNSVTPEDTAVYYCAREKYTVSFYDFFDYWGQGTLVTVSS VL: SYELTQPLSVSVALGQTARITCSGDNIGSMTAHWYQQKPGQAPVLVIYDKNERPSGIPERFSGSNSGNTATLTISRAQAGDEADYYCQSWDDSYTSVVFGGGTKLTVLG
Solution: 14.3

Lab note: next binder to report on.
Exercise: In one line, give reported response of secondary antibody on primary antibody-CDH6 complex of the entry NOV0692 (antibody, human IgG1, lambda, V domains shown) VH: QVQLVESGGGLVKPGGSLRLSCAASGFTFSRYWMDWVRQAPGKGLEWVGRIKSKANGGITDYAAPVKGRFTISRDDSKNTLYLQMNSLKTEDTAVYYCARGMTFLGIWGQGTLVTVSS VL: DIELTQPPSVSVSPGQTASITCSGDSIGSKYAQWYQQKPGQAPVLVIYYNSERPSGIPERFSGSNSGNTATLTISGTQAEDEADYYCQSWDGQSTIRVFGGGTKLTVLG .
Solution: 14.1
